Source of measurements: patent US20240376185A1

Measured Effective SDA Concentration at A450 0.2 by item
- experimental.target: T1, dog albumin (dog Alb) (dog, UniProt P49822 25-608)
- T1 construct: also called Canine albumin
- T1 sequence (P49822 25-608 limits assumed): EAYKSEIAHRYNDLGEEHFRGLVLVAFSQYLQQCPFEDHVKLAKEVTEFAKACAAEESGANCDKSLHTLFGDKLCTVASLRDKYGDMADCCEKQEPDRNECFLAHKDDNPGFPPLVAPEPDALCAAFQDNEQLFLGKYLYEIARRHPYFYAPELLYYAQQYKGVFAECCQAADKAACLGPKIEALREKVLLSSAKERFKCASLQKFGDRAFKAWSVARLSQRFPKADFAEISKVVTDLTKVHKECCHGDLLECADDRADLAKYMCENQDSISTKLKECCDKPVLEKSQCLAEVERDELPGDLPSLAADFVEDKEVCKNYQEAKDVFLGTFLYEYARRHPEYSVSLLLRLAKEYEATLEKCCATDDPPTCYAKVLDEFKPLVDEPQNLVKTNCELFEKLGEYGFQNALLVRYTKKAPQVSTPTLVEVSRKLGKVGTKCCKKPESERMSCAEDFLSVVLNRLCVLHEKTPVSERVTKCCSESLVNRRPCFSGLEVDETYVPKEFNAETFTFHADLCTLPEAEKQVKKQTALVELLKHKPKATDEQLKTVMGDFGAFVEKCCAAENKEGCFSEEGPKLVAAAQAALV
- protocol.text: ELISA: coated dog Alb, anti-his6 PO
A bare number is not enough; add the unit after it.

Below, 3 binders whose answers are already recorded.
binder	Effective SDA Concentration at A450 0.2
SVT15-3FW4M-GS2-SVA12M2-H6 (bispecific antibody) QVQLQESGGGLVQTGGSLRLSCRASGRAFANYHFGWFRQAPGKDREFVASISWKGGSTYYANFALGRFTSSVDRAESSVYLQMSGLTPEDTATYYCAAHDGGDWNYHTGMDYWGQGTQVTVSSGGGGSGGGSEVQLVESGGGLVQAGGSLRLSCAASGRTFSYYPMAWFRQAPGQEREFVAAIIGADTTYYADSLKGRFTISRDNAKNMVYLQMNSLKPEDTAVYYCAARNTYWSDVYYREGQYTNWGQGTQVTVSSHHHHHH	76 ng/mL
SVT02-GS2-SVA12M2-H6 (bispecific antibody) QVQLQQSGGGSVQAGGSLRLSCVGPQRTFSTYGMGWFRQAPGKEREFVAGINYKGDTTYYADSVKGRFTISRDNAKNTLYLQMDSLKPEDRAVYQCARKGGLGGDYRDAGQYRYWGQGTQVTVSSGGGGSGGGSEVQLVESGGGLVQAGGSLRLSCAASGRTFSYYPMAWFRQAPGQEREFVAAIIGADTTYYADSLKGRFTISRDNAKNMVYLQMNSLKPEDTAVYYCAARNTYWSDVYYREGQYTNWGQGTQVTVSSHHHHHH	13 ng/mL
SVT16-L123Q-GS2-SVA12M2-H6 (bispecific antibody) QVQLQESGGGSVQAGDSLRLSCAASGRTISNYAMGWFRQAPGKQREFVAAISRSDNTYYTDSVKGRFTISRDNAKNTLYLQMNSLKPEETAVYYCAADPNLMYESKWKYRALEAWGQGTQVTVSSGGGGSGGGSEVQLVESGGGLVQAGGSLRLSCAASGRTFSYYPMAWFRQAPGQEREFVAAIIGADTTYYADSLKGRFTISRDNAKNMVYLQMNSLKPEDTAVYYCAARNTYWSDVYYREGQYTNWGQGTQVTVSSHHHHHH	34 ng/mL

Field: next binder
The value of Effective SDA Concentration at A450 0.2 measured for the binder SVT06-GS2-SVA12M2-H6 (bispecific antibody) QVQLQESGGGSVQAGGSLRLSCTASELSYDDYTIAWFRRAAGEGRVEDGEGVASITKSYDRAYDNKINYGHSVKGRFTISRDNAKNTVYLQMTDLLPSDTAVYYCALDITPPGGVGASLTEGFLFDYWGQGTQVTVSSGGGGSGGGSEVQLVESGGGLVQAGGSLRLSCAASGRTFSYYPMAWFRQAPGQEREFVAAIIGADTTYYADSLKGRFTISRDNAKNMVYLQMNSLKPEDTAVYYCAARNTYWSDVYYREGQYTNWGQGTQVTVSSHHHHHH turned out to be 39 ng/mL
